test system: SNB-75; assay: NCI tumour cell line growth inhibition, 48 h
Active and inactive are the calls of the source. No stated cut-off is given here; in the data, active = GI50 up to about 1.1 µM and inactive = higher. Square brackets hold non-standard residues; d marks the D form. Peptide text beside a SMILES is read from it. * marks the point of attachment. ξ: configuration not given here. ξF = NC(Cc1ccccc1)C(=O)O; Cbz = O=C(OCc1ccccc1)*; Aib = CC(C)(N)C(=O)O

molecule: O=C(O)CNCc1c2ccccc2[n+]([O-])c2ccccc12
target of assay: SNB-75
GI50: 34.5 µM (inactive)
//
molecule: CC(C)C(/C=C/c1ccc(Cl)cc1)=N\NC(=O)N/N=C(/C=C/c1ccc(Cl)cc1)C(C)C
target of assay: SNB-75
GI50: 21.7 µM (inactive)
//
molecule: O=C1CN(C(=O)C2CCCN2C(=O)C2CCCN2)C(=O)CN1 (stereo not given)
target of assay: SNB-75
GI50: > 100 µM (inactive)
//
molecule: CC(C)(C)OC(=O)N1CCc2c(n(C/C=C/c3ccccc3)[nH]c2=O)C1
target of assay: SNB-75
GI50: > 100 µM (inactive)
//
molecule: CN(C)c1ccc(Cc2cc3c(O)ccc(O)c3cc(Cc3ccc(N(C)C)cc3)c2=O)cc1
target of assay: SNB-75
GI50: > 55.8 µM (inactive)
//
molecule: O=C(NC1(c2cc3ccccc3s2)CCCCC1)C1CCC1
target of assay: SNB-75
GI50: 46.7 µM (inactive)
//
molecule: CNS(=O)(=O)NN(C)S(=O)(=O)c1ccc(Br)cc1
target of assay: SNB-75
GI50: > 100 µM (inactive)
//
molecule: CC(C)(NC(=O)OCc1ccccc1)C(=O)NC(Cc1ccccc1)C(=O)O (stereo not given) (Cbz-[Aib]-[ξF]-OH)
target of assay: SNB-75
GI50: > 100 µM (inactive)
//
molecule: Cc1nc2c(Cl)cc(Cl)cc2c2c1CCO2
target of assay: SNB-75
GI50: 60.8 µM (inactive)
//
molecule: CCN(CC)CCn1c(=O)c2cccnc2n2c3c(=O)n(C)c(=O)n(C)c3nc12
target of assay: SNB-75
GI50: > 100 µM (inactive)

====

test system: M14; experiment: NCI tumour cell line growth inhibition, 48 h
Activity calls are given as the source filed them. Rule as the data show it: active = GI50 up to about 1.1 µM and inactive = higher.

compound: CN(C)c1ccc(Cc2cc3c(O)ccc(O)c3cc(Cc3ccc(N(C)C)cc3)c2=O)cc1
GI50: 17.5 µM (inactive)
//
compound: Cn1c2c(c3c(=O)[nH]ncc31)CCc1ccccc1-2
GI50: 18.6 µM (inactive)
//
compound: COc1ccc(/C(Cl)=C/c2cc(OC)ccc2OC)cc1
GI50: 63.8 µM (inactive)
//
compound: CCCN1CN(C(C(=O)N[C@@H]2C(=O)N3C2SC(C)(C)C3C(=O)O)c2ccccc2)CSC1=S (stereo partly specified)
GI50: > 100 µM (inactive)
//
compound: C[C@@H]([C@H]1CC[C@@]2(C)[C@@H]3CC[C@@H]4C(=CC3=CC[C@]12C)CC[C@H](N(C)C)C4(C)C)N(C)C [BUXAMINE A]
GI50: > 100 µM (inactive)
//
compound: CCCOP1(=O)C=CC(Cl)=C(C)C1 (stereo unspecified)
GI50: 33 µM (inactive)
//
compound: CCOC(=O)C1=CNC2=N[C@H]3CCCC[C@@H]3N2C1=O
GI50: > 100 µM (inactive)
//
compound: COC(=O)Nc1nc2cc(C(=O)c3ccc[nH]3)ccc2[nH]1
GI50: 0.571 µM (active)
//
compound: O[C@]12CCCC[C@H]1CCC2
GI50: > 100 µM (inactive)
//
compound: N#Cc1c(C#N)c(-c2cccc([N+](=O)[O-])c2)n(-c2ccccc2)c1N
GI50: > 100 µM (inactive)
//
compound: CC(C)CC1[C@@H](OCc2ccccc2)COS(=O)N1Cc1ccccc1 (stereo partly specified)
GI50: 51.4 µM (inactive)
//
compound: c1ccc(CSSSCc2ccccc2)cc1 [DIBENZYL TRISULFIDE]
GI50: 2.27 µM (inactive)
//
compound: CC(C)C(CCOS(=O)(=O)O)CCC(C)[C@H]1[C@@H](O)C(O)C2[C@]3(O)C[C@@H](O)C4(O)C[C@@H](O)CC[C@]4(C)C3CC[C@@]21C (stereo partly specified)
GI50: > 100 µM (inactive)
//
compound: C=C1C(=O)O[C@H]2[C@H]1[C@H](OC(=O)/C(C)=C\C)C[C@]1(CO1)[C@@H]1[C@H](OC(C)=O)C=C(C)[C@]21O [EUPAROTIN ACETATE]
GI50: 21.6 µM (inactive)
//
compound: CC(C)(C)OC(=O)N1N=NC2C3CC(=O)C(O3)C21 (stereo unspecified)
GI50: > 100 µM (inactive)
//
compound: COC(=O)CC(C(C(=O)OC)C(=O)OC)N1C(=O)OC(c2ccccc2)C1c1ccccc1 (stereo unspecified)
GI50: > 100 µM (inactive)
//
compound: O=C1CCC(c2ccccc2)(c2ccccc2)CC1
GI50: 65.8 µM (inactive)
//
compound: CC(C)C(C/C=C1/CC(CO)(COC(=O)C2CCCCC2)OC1=O)C(C)C (stereo unspecified)
GI50: 17.3 µM (inactive)
//
compound: Cc1ccc2c(c1)[nH]c(=S)n2C=C1C(=O)CC(C)(C)CC1=O
GI50: > 100 µM (inactive)
//
compound: COC(=O)c1cnn2c1ccc1ccccc12
GI50: > 100 µM (inactive)
//
compound: O=c1ncc(F)cn1C1OC(CO)C(O)C1O (stereo unspecified)
GI50: > 52 µM (inactive)
//
compound: Cc1cc(C)c2c(c1)CC1(Cc3c(C)cc(C)cc3C1=O)C2=O (stereo unspecified)
GI50: > 100 µM (inactive)
//
compound: O=C1C2C(c3ccccc3)NC(c3ccccc3)C1C(c1ccccc1)NC2c1ccccc1 (stereo unspecified)
GI50: > 100 µM (inactive)
//
compound: O=C(CCc1ccc(O)c(O)c1)NCCc1cc(O)cc(O)c1
GI50: > 100 µM (inactive)
//
compound: COc1ccc(Cc2ccccc2C(=O)O)c2ccccc12
GI50: 35.6 µM (inactive)
//
compound: COc1ccc(CCNC(=O)Cc2ccccc2CCO)cc1OC
GI50: > 100 µM (inactive)
